- target.desc: Cytochrome P450 1A2 (Homo sapiens)
- procedure.text: Cytochrome panel assay with activity outcomes
- reported.conditions: recombinant CYP, pro-luciferin dealkylation, luminescence, p450-cyp1a2; series mostly up to 57.1 µM
About 5,700 (36%) of roughly 16,000 compounds were called active. Roughly 24% stayed inconclusive and do not appear here. The list shows a part of the results.
metric.name: AC50

CS(=O)(=O)N1CCC2(CC1)CN(Cc1cc(C(F)(F)F)cc(C(F)(F)F)c1)C2    inactive
O=C(NCC1CCCO1)C(c1cccnc1)N(C(=O)Cc1cccs1)c1cccnc1 (configuration not stated)    inactive
Cl/C(=C\n1cncn1)c1ccc(Cl)cc1Cl    0.0631 µM (active)
Cc1ccc(NC(=O)Nc2nc(-c3ccc(C)s3)cs2)cc1    1.58 µM (active)
Cc1ccc2nc(-c3cccnc3)oc2c1    5.01 µM (active)
O=C(CCn1c(=O)[nH]c2ccsc2c1=O)Nc1ccc(F)c(F)c1    inactive

Hey, can you go through the list below and give me AC50 for every item?
1. O=C(c1cnccn1)N1CCC2(CC1)CCN(c1ccccn1)CC2
2. NS(=O)(=O)c1ccc(CCNC(=O)C2CCCN2C(=O)OCc2ccccc2)cc1 (configuration not stated)

1. inactive
2. inactive

List the reported AC50 of each compound below.
1. CN(C)c1ccc(-c2cc(N(C)Cc3ccco3)ncn2)cc1
2. Cc1ccc(C(c2nnnn2CC2CCCO2)N2CCN(C(=O)c3ccco3)CC2)cc1 (configuration not stated)
3. C/C(=N\NC(=O)Cc1ccc(Cl)cc1)c1ccccn1

["0.316 µM (active)", "inactive", "4.47 µM (active)"]

// input: 6 compounds below; output: AC50 for each
1. COc1ccccc1CN1CCCC2(CCN(C(=O)c3cccn3C)CC2)C1
2. CCNc1ncc2nc(-c3cn(C)c4ccccc34)c(=O)n(CCC#N)c2n1
3. C=CCNC(=O)c1csc(-c2ccccc2)n1
4. Cc1c(C=NCCOCc2ccccc2)cnn1C
5. O=c1c2ccccc2nc2n1CCc1c-2[nH]c2ccccc12
6. COc1ccc(CNC(=O)C2CC(c3cccc([N+](=O)[O-])c3)=NO2)cc1 (configuration not stated)

1. inactive
2. 5.01 µM (active)
3. 0.631 µM (active)
4. 17.8 µM (active)
5. 0.316 µM (active)
6. 15.8 µM (active)

Consider the following items and state reported AC50 for each.
1. C=CCNC(=O)c1cccn1-c1ccsc1C(=O)OC
2. CCC(=O)N(C)/C=C1\Sc2ccccc2C1=O
3. COc1cccc(C2=NOC(C(=O)NCc3ccccn3)C2)c1 (configuration not stated)
4. CCNc1ncc2nc(CCc3ccccc3)c(=O)n(C)c2n1
5. CCOc1cc2[nH]c(=O)n(CCCC(=O)NCc3ccc(OC)cc3)c(=O)c2cc1OCC
6. COc1ccccc1CN1CCC2(CCNCC2)CC1
7. C=CC(C)(C)c1[nH]c2ccccc2c1C1=C(O)C(=O)C(c2c[nH]c3c(CC=C(C)C)cccc23)=C(O)C1=O

inactive
3.16 µM (active)
inactive
2.51 µM (active)
inactive
inactive
25.1 µM (active)

* * *

- target.desc: Cytochrome P450 1A2 (Homo sapiens) (UniProt P05177)
- Sequence (P05177 whole entry, looked up): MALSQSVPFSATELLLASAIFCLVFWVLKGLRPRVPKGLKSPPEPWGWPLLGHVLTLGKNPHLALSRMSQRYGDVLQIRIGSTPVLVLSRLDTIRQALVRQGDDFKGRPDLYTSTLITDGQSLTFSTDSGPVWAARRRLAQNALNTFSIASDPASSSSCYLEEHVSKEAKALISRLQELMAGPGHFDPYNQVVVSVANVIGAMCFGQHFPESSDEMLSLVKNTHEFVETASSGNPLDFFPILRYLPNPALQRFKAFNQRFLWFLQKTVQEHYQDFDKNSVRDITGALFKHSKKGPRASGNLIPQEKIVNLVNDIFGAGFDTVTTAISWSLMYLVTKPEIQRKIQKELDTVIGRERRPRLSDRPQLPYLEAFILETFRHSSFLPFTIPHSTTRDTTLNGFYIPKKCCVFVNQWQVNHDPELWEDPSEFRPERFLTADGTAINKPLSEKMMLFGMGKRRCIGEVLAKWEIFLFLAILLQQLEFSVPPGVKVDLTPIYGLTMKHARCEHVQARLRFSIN
- procedure.text: Cytochrome panel assay with activity outcomes
- reported.conditions: recombinant CYP, pro-luciferin dealkylation, luminescence, p450-cyp1a2; series mostly up to 57.1 µM
Screen size: about 16,000 compounds; about 5,700 (36%) were called active. Not shown: some 24% with an inconclusive outcome. Calls come from the whole dose curve; as a rule, active = well fitted curve in the direction sought with a large enough effect; inconclusive = small, poorly fitted or top-dose-only effect, or effect the other way; inactive = no such curve, though single readings can be large or run the other way. Some of the results follow.
Write down the outcome that applies. Available outcomes: active, inactive

Known results for compounds:
COc1ccc2ccccc2c1/C=C\C(=O)c1ccccc1    active
COc1ccccc1/C=C/C(=O)c1ccc(Cl)cc1    active
N#Cc1cccc(-c2nccc(NCc3cccs3)n2)c1    active
COCCn1c(=O)c(-c2ccc(Cl)cc2)nc2cnc(N(C)C)nc21    active
O=c1c(-c2cccs2)nc2cnc(Oc3ccccc3)nc2n1C1CC1    active

Hi team, can someone confirm the assay call for `CN(C)Cc1ccccc1-c1nccc(N(C)C)n1` ? active

`COCCn1c(=O)c(-c2ccc(F)cc2)nc2cnc(N(C)C)nc21` , same question. active

Would you mind doing `COCCNC(=O)CCCCCn1c(=S)[nH]c2ccccc2c1=O` as well? active
